For each of the molecules below, state its pIC50.
Target: CathepsinG, from human neutrophils (Homo sapiens, UniProt P08311)
Sequence (P08311 21-244): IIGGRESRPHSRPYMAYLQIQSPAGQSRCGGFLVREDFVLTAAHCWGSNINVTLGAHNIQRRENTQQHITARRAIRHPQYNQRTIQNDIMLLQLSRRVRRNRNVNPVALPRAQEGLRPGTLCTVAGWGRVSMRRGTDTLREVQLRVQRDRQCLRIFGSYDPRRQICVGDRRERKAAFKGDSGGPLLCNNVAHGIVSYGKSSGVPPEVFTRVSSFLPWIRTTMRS
Test: Enzymatic assay, cathepsin G
Conditions: read-out: Cathepsin G IC50
Where a SMILES comes first, the peptide text is derived from it.
Answers are plain numbers, as −log10 of the molar value.

CCCC[C@@H]1NC(=O)[C@@H]2CCCN2C(=O)[C@@H]2CCCN2C(=O)[C@H](CC(=O)O)NC(=O)[C@H](CO)NC(=O)[C@H](CCCCN)NC(=O)[C@H]([C@@H](C)O)NC(=O)[C@@H]2CSSC[C@H](NC1=O)C(=O)N[C@@H](CO)C(=O)N1CCC[C@@H]1C(=O)N1CCC[C@H]1C(=O)N[C@@H](Cc1ccccc1)C(=O)N2 [Ex. 53] (HELM PEPTIDE1{F.C.T.K.S.D.P.P.[Nle].C.S.[dP].P}$PEPTIDE1,PEPTIDE1,2:R3-10:R3|PEPTIDE1,PEPTIDE1,1:R1-13:R2$$$V2.0) :: 7.25

Okay, next one:
Query: Please give the measured pIC50 for this molecule: CCCC[C@@H]1NC(=O)[C@@H]2CCCN2C(=O)[C@H]2CCCN2C(=O)[C@H](Cc2ccccc2Cl)NC(=O)[C@@H]2CSSC[C@H](NC1=O)C(=O)N[C@@H]([C@@H](C)O)C(=O)N[C@@H](C)C(=O)N[C@@H](CO)C(=O)N[C@@H]([C@@H](C)CC)C(=O)N1CCC[C@H]1C(=O)N1CCC[C@H]1C(=O)N[C@@H](CCC(N)=O)C(=O)N2 [Ex. 144] (HELM PEPTIDE1{[Nle].C.T.A.S.I.P.P.Q.C.[O=C([C@H](Cc1ccccc1Cl)N[*:1])[*:2]].[dP].P}$PEPTIDE1,PEPTIDE1,2:R3-10:R3|PEPTIDE1,PEPTIDE1,1:R1-13:R2$$$V2.0)
Result: 4.67
